Entries and their IC50
Molecular target: Low molecular weight protein-tyrosine phosphatase A (Mycobacterium tuberculosis)
Sequence (P9WIA1 whole entry): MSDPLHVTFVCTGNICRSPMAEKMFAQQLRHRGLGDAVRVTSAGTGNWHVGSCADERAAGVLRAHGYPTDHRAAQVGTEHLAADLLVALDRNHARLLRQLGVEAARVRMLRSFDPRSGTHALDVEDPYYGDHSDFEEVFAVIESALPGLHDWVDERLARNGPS
Assay: Inhibition of recombinant Mycobacterium tuberculosis PtpA using p-nitrophenyl phosphate as substrate preincubated for 10 mins followed by substrate addition and measured every minute for 10 mins by UV-VIS spectrophotometric analysis
Provide only the numeric value, understood in µM.

S=C(N/N=C/c1ccc(-c2ccccc2)cc1)Nc1cccc2ccccc12 :: 7.4

Task item: Any idea what its IC50 is? The compound is O=[N+]([O-])c1ccc(/C=N/NC(=S)Nc2cccc3ccccc23)cc1
Reply: 9.5

Task item: Any idea what its IC50 is? The compound is S=C(N/N=C/c1ccc(Cl)c(Cl)c1)Nc1cccc2ccccc12
Reply: 13.4

Task item: Any idea what its IC50 is? The compound is Cc1ccc(NC(=S)N/N=C/c2ccc(-c3cc(C(F)(F)F)ccc3Cl)o2)cc1
Reply: 9.1
